Please provide measured inhibition of SARS-CoV-2 cytopathic effect for the entries that follow.
- Tested on: Vero E6 infected with SARS-CoV-2
- test: inhibition of SARS-CoV-2 cytopathic effect; higher = more antiviral protection, active = above 15
- details: 100 nM; 48 h
Numbers only, in %.

compound: Nc1cccc2c1C(=O)N(C1CCC(=O)NC1=O)C2=O (stereo not given) [pomalidomide]
assayed_system: Vero E6 infected with SARS-CoV-2
observed: 2.15

compound: Cc1cc(C(=O)NOCCO)c(Nc2ccc(I)cc2F)n(C)c1=O
assayed_system: Vero E6 infected with SARS-CoV-2
observed: -12

compound: C/C=C1\NC(=O)[C@H]2CSSCC/C=C/[C@H](CC(=O)N[C@H](C(C)C)C(=O)N2)OC(=O)[C@H](C(C)C)NC1=O
assayed_system: Vero E6 infected with SARS-CoV-2
observed: -0.75

compound: O=C(CCCN1CCC2(CC1)C(=O)NCN2c1ccccc1)c1ccc(F)cc1
assayed_system: Vero E6 infected with SARS-CoV-2
observed: 0.95

compound: CC(=O)OC[C@H](N)C(=O)O
assayed_system: Vero E6 infected with SARS-CoV-2
observed: 1.58

Please go through the list and note inhibition of SARS-CoV-2 cytopathic effect for each compound.
1. O=C(NCCCNc1nc(Nc2cccc(NC(=O)N3CCCC3)c2)ncc1I)c1cccs1
2. CCC(=O)O[C@]1(C(=O)CO)CC[C@H]2[C@@H]3CCC4=CC(=O)CC[C@]4(C)[C@H]3CC[C@@]21C
3. CO[C@@]1(NC(=O)C(C(=O)O)c2ccc(O)cc2)C(=O)N2C(C(=O)O)=C(CSc3nnnn3C)CO[C@@H]21 (stereo not given in full)
4. CCN1C(C)(C)CC(Oc2ccc(C(=O)Nc3ccc(NC(=O)Nc4cc(C(C)(C)C)on4)cc3)nc2)CC1(C)C
5. CCC(CC)Nc1cc(C)nc(Oc2c(C)cc(C)cc2C)c1C
6. CC(=O)Oc1c(C)cc(OCC(O)CNC(C)C)c(C)c1C (stereo not given)

[0.52, -0.33, -0.85, -1.48, -1.28, 0.06]
